- PROCEDURE TEXT: Solubility in extremely nonpolar to polar solvents
- PROTOCOL CONDITIONS: pentane, 25° C.
Listing of recorded Solubility in Pentane (25° C.) by entry.

[
  {
    "MOLECULE": "CC(C)c1cccc(C(C)C)c1N1C(=O)c2cc(Oc3ccc(C(C)(C)CC(C)(C)C)cc3)c3c4c(Oc5ccc(C(C)(C)CC(C)(C)C)cc5)cc5c6c(cc(Oc7ccc(C(C)(C)CC(C)(C)C)cc7)c(c7c(Oc8ccc(C(C)(C)CC(C)(C)C)cc8)cc(c2c37)C1=O)c64)C(=O)N(c1c(C(C)C)cccc1C(C)C)C5=O [Example 2]",
    "Solubility in Pentane (25° C.)": "81 g/L"
  },
  {
    "MOLECULE": "CC(C)c1cccc(C(C)C)c1N1C(=O)c2cc(Oc3ccc(C(C)(C)CC(C)(C)C)cc3)c3c4cccc5c(Oc6ccc(C(C)(C)CC(C)(C)C)cc6)ccc(c6c(Oc7ccc(C(C)(C)CC(C)(C)C)cc7)cc(c2c36)C1=O)c54 [Example 1]",
    "Solubility in Pentane (25° C.)": "53 g/L"
  },
  {
    "MOLECULE": "CC(C)c1cccc(C(C)C)c1N1C(=O)c2cc(Oc3ccc(C(C)(C)CC4CCCCC4)cc3)c3c4c(Oc5ccc(C(C)(C)CC6CCCCC6)cc5)cc5c6c(cc(Oc7ccc(C(C)(C)CC8CCCCC8)cc7)c(c7c(Oc8ccc(C(C)(C)CC9CCCCC9)cc8)cc(c2c37)C1=O)c64)C(=O)N(c1c(C(C)C)cccc1C(C)C)C5=O [Example 3]",
    "Solubility in Pentane (25° C.)": "65 g/L"
  },
  {
    "MOLECULE": "CC(C)c1cccc(C(C)C)c1N1C(=O)c2ccc3c4c(Oc5ccc(C(C)(C)CC(C)(C)C)cc5)cc5c6c(ccc(c7c(Oc8ccc(C(C)(C)CC(C)(C)C)cc8)cc(c2c37)C1=O)c64)C(=O)N(c1c(C(C)C)cccc1C(C)C)C5=O [Example 4]",
    "Solubility in Pentane (25° C.)": "55 g/L"
  },
  {
    "MOLECULE": "CCCCCCCCCCCCN1C(=O)c2ccc3c4c(Oc5ccc(C(C)(C)CC(C)(C)C)cc5)cc5c6c(ccc(c7c(Oc8ccc(C(C)(C)CC(C)(C)C)cc8)cc(c2c37)C1=O)c64)C(=O)N(CCCCCCCCCCCC)C5=O [Example 5]",
    "Solubility in Pentane (25° C.)": "24 g/L"
  }
]

These data points were gathered from patent US7145010B2.
